Each record here notes measured IC50.
# System: Syk (Homo sapiens, UniProt P43405)
# Construct: purchased Carna Biosciences
# Protocol notes: Syk HTRF assay
# Assay type: biochemical
# Applied conditions: activity levels A-D, read-out: Activity Level (IC50 in the Syk HTRF assay)

Take a look at these entries with their results.
Query: Complete the entry with IC50 for OCCCOc1cccc2nc(Nc3ccc(C(F)(F)F)cc3)nn12
Response: 1000 to 10000 nM

Query: Complete the entry with IC50 for FC(F)(F)c1ccc(Nc2nc3cccc(N4CCCC4)n3n2)cc1
Response: 1000 to 10000 nM

Query: Complete the entry with IC50 for O[C@H]1CCC[C@H](Nc2cccc3nc(Nc4ccc(C(F)(F)F)cc4)nn23)C1 (racemic) [Example 248]
Response: 0.005 to 250 nM

Then there is this compound:
Query: Complete the entry with IC50 for O[C@@H]1CCC[C@@H](Nc2cccc3nc(Nc4ccc(C(F)(F)F)cc4)nn23)C1 (single isomer, unassigned; enantiomer 1) [Example 225]
Response: 0.005 to 250 nM

====

# System: Syk (Homo sapiens, UniProt P43405)
# Construct: purchased Carna Biosciences
# Protocol notes: Syk HTRF assay
# Type: biochemical
# Applied conditions: activity levels A-D, read-out: Activity Level (IC50 in the Syk HTRF assay)
pIC50: −log10 of the molar value.
Each record here notes measured pIC50.

Query: Complete the entry with pIC50 for O[C@@H]1CCC[C@H]1Nc1cc(-c2cccc3nc(Nc4ccc(C(F)(F)F)cc4)nn23)ccn1
Response: 6.00 to 6.30

Query: Complete the entry with pIC50 for N#Cc1ccc(Nc2nc3cccc(N[C@H]4CC[C@@H](O)CC4)n3n2)cc1
Response: 6.60 to 11.30

Query: Complete the entry with pIC50 for CNC(=O)c1ccc(Nc2nc3cccc(-n4ccnc4)n3n2)cc1
Response: 5.00 to 6.00

Query: Complete the entry with pIC50 for O=C1CN(Cc2cccc3nc(Nc4ccc(C(F)(F)F)cc4)nn23)CC(=O)N1
Response: 6.60 to 11.30

More entries:
Query: Complete the entry with pIC50 for Cn1ncc2ccc(Nc3nc4cccc(N[C@H]5CC[C@@H](O)CC5)n4n3)cc21
Response: 6.60 to 11.30

Query: Complete the entry with pIC50 for CC(C)(CO)Nc1cccc2nc(Nc3ccc(C(F)(F)F)cc3)nn12
Response: 5.00 to 6.00

Query: Complete the entry with pIC50 for NCCCOc1cccc2nc(Nc3ccc(C(F)(F)F)cc3)nn12
Response: 5.00 to 6.00

====

# System: Syk (Homo sapiens)
# Construct: purchased Carna Biosciences
# Protocol notes: Syk HTRF assay
# Format: biochemical
# Applied conditions: activity levels A-D, read-out: Activity Level (IC50 in the Syk HTRF assay)
Measure name: IC50

Query: Complete the entry with IC50 for O[C@H]1CCCC[C@@H]1Nc1cccc2nc(Nc3ccc(C(F)(F)F)cc3)nn12
Response: 1000 to 10000 nM

Query: Complete the entry with IC50 for OC[C@H]1CCN(c2cccc3nc(Nc4ccc(C(F)(F)F)cc4)nn23)C1
Response: 250 to 500 nM

Query: Complete the entry with IC50 for CC1C(=O)NCCN1Cc1cccc2nc(Nc3ccc(C(F)(F)F)cc3)nn12 (stereo in doubt) [Example 275]
Response: 0.005 to 250 nM

Query: Complete the entry with IC50 for OCC1CCCN1Cc1cccc2nc(Nc3ccc(C(F)(F)F)cc3)nn12 (stereo in doubt)
Response: 1000 to 10000 nM

Query: Complete the entry with IC50 for O=C1CN(Cc2cccc3nc(Nc4cnc5[nH]ccc5c4)nn23)CCN1
Response: 0.005 to 250 nM

More entries:
Query: Complete the entry with IC50 for Cc1cncc(Nc2nc3cccc(N[C@H]4CC[C@@H](O)CC4)n3n2)c1
Response: 250 to 500 nM

Query: Complete the entry with IC50 for O=C1Cc2ccc(Nc3nc4cccc(N[C@H]5CC[C@@H](O)CC5)n4n3)cc2N1
Response: 0.005 to 250 nM

Query: Complete the entry with IC50 for CNC(=O)c1ccc(Nc2nc3cccc(CC(O)C4CCNCC4)n3n2)cc1 (centres unmarked)
Response: 1000 to 10000 nM
